Protocol Details: Flashpoint of materials
Type: physicochemical
Reported Endpoint: Flashpoint (°C)
Answers are plain numbers, in °C.

Example compounds with recorded Flashpoint:
| Compound | Units Of Measure | Flashpoint |
| --- | --- | --- |
| C[S+](C)[O-] [DMSO, Dimehtyl sulfoxide] | °C | 95 |
| CC(O)C(=O)N(C)C (centres unmarked) [Agnique AMD 3L, N,N-Dimethyl lactamide] | °C | 103 |
| CC(O)CN(CCO)CCO (centres unmarked) | °C | 191 |

Please state, for each entry, its recorded Flashpoint.
1. CC(O)CO (centres unmarked)
2. OCCOCCO

Result:
99
142
